Cited source: patent US20240174727A1

# Tested System: T1, human NPRA (human, UniProt P16066 33-1061)
# T1 sequence (looked up): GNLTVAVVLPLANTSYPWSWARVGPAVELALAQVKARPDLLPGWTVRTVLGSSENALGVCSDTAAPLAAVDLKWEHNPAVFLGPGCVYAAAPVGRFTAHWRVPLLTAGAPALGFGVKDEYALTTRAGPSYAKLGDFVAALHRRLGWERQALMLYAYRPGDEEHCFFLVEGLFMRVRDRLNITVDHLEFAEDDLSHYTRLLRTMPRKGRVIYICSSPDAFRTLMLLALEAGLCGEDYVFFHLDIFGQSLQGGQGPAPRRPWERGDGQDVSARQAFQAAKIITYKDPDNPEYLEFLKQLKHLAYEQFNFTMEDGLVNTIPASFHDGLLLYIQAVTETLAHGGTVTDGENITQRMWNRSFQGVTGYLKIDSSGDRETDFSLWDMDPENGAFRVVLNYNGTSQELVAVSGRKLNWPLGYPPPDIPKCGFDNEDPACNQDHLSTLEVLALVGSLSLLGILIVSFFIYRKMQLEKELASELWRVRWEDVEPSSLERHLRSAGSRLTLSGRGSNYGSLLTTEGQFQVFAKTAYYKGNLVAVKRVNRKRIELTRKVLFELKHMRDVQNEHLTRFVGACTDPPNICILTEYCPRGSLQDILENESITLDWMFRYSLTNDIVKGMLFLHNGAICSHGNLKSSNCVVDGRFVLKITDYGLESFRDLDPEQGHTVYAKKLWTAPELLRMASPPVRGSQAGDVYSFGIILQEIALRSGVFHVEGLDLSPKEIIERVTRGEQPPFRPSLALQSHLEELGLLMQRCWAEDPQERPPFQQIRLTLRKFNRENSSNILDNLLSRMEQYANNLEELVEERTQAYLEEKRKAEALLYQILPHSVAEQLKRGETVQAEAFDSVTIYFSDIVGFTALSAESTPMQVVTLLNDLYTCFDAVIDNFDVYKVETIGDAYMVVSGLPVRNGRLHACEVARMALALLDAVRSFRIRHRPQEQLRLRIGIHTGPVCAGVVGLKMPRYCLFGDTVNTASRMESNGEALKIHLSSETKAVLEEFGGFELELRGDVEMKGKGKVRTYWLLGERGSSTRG
# Protocol Details: cell-based or functional assay
Numbered stars: 1 amine (or outer) side, 2 acyl side, 3 side chain; on linkers, the order of the positions; unused ones are H or OH. Bridge positions count the residues as written; N and C are the ends. Square brackets hold non-standard residues; d marks the D form. * marks the point of attachment. thioacetal = thioacetal linkage between two cysteines (intrachain bond at the bracketed Cys); C20 diacid = O=C(O)CCCCCCCCCCCCCCCCCCC(=O)*; γGlu = O=C(O)[C@H](CCC(=O)[*:2])N[*:1]; βAla = NCCC(=O)O
Answer condition not met if cGMP Assay (EC50, pM) w/Casein, hNPRA is under 600 pM, and condition met if it is 600 pM or more.

Binder | Label
EKPRSSCFGKRIDRIGHYSGLGCPSFRHGSPSSGAPPPS (N-terminus acylated with HOOC-(CH2)18-CO-(γGlu)-; (AEEA)8 after EKEKEKG; thioacetal linkage between the two bracketed Cys; C-terminal amide) [HOOC-(CH2)18-CO-(γGlu)-EKEKEKG-(AEEA)8-EKPRSS[CFGKRIDRIGHYSGLGC]PSFRHGSPSSGAPPPS-NH2] | condition met
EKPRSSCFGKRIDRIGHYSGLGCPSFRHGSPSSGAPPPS (N-terminus acylated with HOOC-(CH2)18-CO-(γGlu)-; PEG24 after EKEKEKG; thioacetal linkage between the two bracketed Cys; C-terminal amide) [HOOC-(CH2)18-CO-(γGlu)-EKEKEKG-PEG24-EKPRSS[CFGKRIDRIGHYSGLGC]PSFRHGSPSSGAPPPS-NH2] | condition met
{C20 diacid}-[γGlu]EKEKEKGEK[βAla]RSSCFGKRIDRIGHYSGLGCPSFRHGSPSSGAPPPS-NH2 (bridge 15-31 via thioacetal) [HOOC-(CH2)18-CO-(γGlu)-EKEKEKGEK-βAla-RSS[CFGKRIDRIGHYSGLGC]PSFRHGSPSSGAPPPS-NH2] | condition not met
{C20 diacid-γGlu}-EKEKEKGEKPRSSCFGKRIDRIGHQSGLGCPSFRHGSPSSGAPPPS-NH2 (bridge 14-30 via thioacetal) [HOOC-(CH2)18-CO-(γGlu)-EKEKEKGEKPRSS[CFGKRIDRIGHQSGLGC]PSFRHGSPSSGAPPPS-NH2] | condition met
EKPRSSCFGKRIDRIGHQSGLGCPSFRHSGSPSSGAPPPSG (N-terminus acylated with HOOC-(CH2)18-CO-(γGlu)-; PEG24 after EKEKEKG; thioacetal linkage between the two bracketed Cys; C-terminal amide) [HOOC-(CH2)18-CO-(γGlu)-EKEKEKG-PEG24-EKPRSS[CFGKRIDRIGHQSGLGC]PSFRHSGSPSSGAPPPSG-NH2] | condition met
EKPRSSCFGKRIDRIGHYSGLGCPSFRHSGSPSSGAPPPSG (N-terminus acylated with HOOC-(CH2)18-CO-(γGlu)-; PEG24 after EKEKEKG; thioacetal linkage between the two bracketed Cys; C-terminal amide) [HOOC-(CH2)18-CO-(γGlu)-EKEKEKG-PEG24-EKPRSS[CFGKRIDRIGHYSGLGC]PSFRHSGSPSSGAPPPSG-NH2] | condition met
EKXRSSCFGKRIDRIGHQSGLGCPSFRHGSPSSGAPPPS (N-terminus acylated with HOOC-(CH2)18-CO-(γGlu)-; (AEEA)6 after EKEKEKG; βAla; thioacetal linkage between the two bracketed Cys; C-terminal amide) [HOOC-(CH2)18-CO-(γGlu)-EKEKEKG-(AEEA)6-EK-βAla-RSS[CFGKRIDRIGHQSGLGC]PSFRHGSPSSGAPPPS-NH2] | condition not met
SXRRSSCFGKRIDRIGHYSGLGCPSFRHGGKSSGAPPPS (N-terminus acylated with HOOC-(CH2)18-CO-(γGlu)-; PEG24 after EKEKEKG; 4Pal; thioacetal linkage between the two bracketed Cys; C-terminal amide) [HOOC-(CH2)18-CO-(γGlu)-EKEKEKG-PEG24-S-4Pal-RRSS[CFGKRIDRIGHYSGLGC]PSFRHGGKSSGAPPPS-NH2] | condition not met
EKPRSSCFGKGIDRIGHQSGLGCPSFRHSGSPSSGAPPPSG (N-terminus acylated with HOOC-(CH2)18-CO-(γGlu)-; PEG24 after EKEKEKG; thioacetal linkage between the two bracketed Cys; C-terminal amide) [HOOC-(CH2)18-CO-(γGlu)-EKEKEKG-PEG24-EKPRSS[CFGKGIDRIGHQSGLGC]PSFRHSGSPSSGAPPPSG-NH2] | condition met
SXRRSSCFGKRIDRIGHYSGLGCPSFRHGGKSSGAPPPS (N-terminus acylated with HOOC-(CH2)18-CO-(γGlu)-; (AEEA)6 after EKEKEKG; 4Pal; thioacetal linkage between the two bracketed Cys; C-terminal amide) [HOOC-(CH2)18-CO-(γGlu)-EKEKEKG-(AEEA)6-S-4Pal-RRSS[CFGKRIDRIGHYSGLGC]PSFRHGGKSSGAPPPS-NH2] | condition not met
{C20 diacid-γGlu}-EKEKEKGEKPRSSCFGKRIDRIGRYSGLGCPSFRHGSPSSGAPPPS-NH2 (bridge 14-30 via thioacetal) [HOOC-(CH2)18-CO-(γGlu)-EKEKEKGEKPRSS[CFGKRIDRIGRYSGLGC]PSFRHGSPSSGAPPPS-NH2] | condition met
